The reported measurements were obtained from patent US20090170763A1.

system.tested: rat GHS-R (GHS receptor) expressed on CHO-GHSR62 cells (rat) (UniProt O08725)
Sequence (O08725 whole entry): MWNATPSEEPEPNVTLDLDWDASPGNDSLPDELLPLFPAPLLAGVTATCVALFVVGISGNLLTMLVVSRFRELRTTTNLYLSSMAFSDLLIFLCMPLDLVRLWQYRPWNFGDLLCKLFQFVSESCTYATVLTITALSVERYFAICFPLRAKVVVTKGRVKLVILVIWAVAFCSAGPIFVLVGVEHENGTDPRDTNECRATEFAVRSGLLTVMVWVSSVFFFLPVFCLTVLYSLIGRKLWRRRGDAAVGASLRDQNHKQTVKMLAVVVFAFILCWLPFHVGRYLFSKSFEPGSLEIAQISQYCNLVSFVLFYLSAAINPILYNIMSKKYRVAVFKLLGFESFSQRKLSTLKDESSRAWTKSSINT
method.description: cell-based or functional assay
Square brackets hold non-standard residues; d marks the D form. Ends that are not written are not given here. * marks the point of attachment. Octanoyl = CCCCCCCC(=O)*; Aib = CC(C)(N)C(=O)O; Octyl = CCCCCCCC*
Classification field: enter rule met for Activity EC50 values not below 10 nM, rule not met for values below it.

Solved entries:
{"binder": "GSXFLSPEHQRVQQRKESKKPPAKLQPR (position 3 (X) is 2-D-naphthylalanine (D-Nal)) [[2-^DNal^3]-hGhrelin]", "label": "rule met"}
{"binder": "GSS(Octanoyl)FLSK-NH2 (N-terminus assumed; SMILES CCCCCCCC(=O)OC[C@H](NC(=O)[C@H](CO)NC(=O)CN)C(=O)N[C@@H](Cc1ccccc1)C(=O)N[C@@H](CC(C)C)C(=O)N[C@@H](CO)C(=O)N[C@@H](CCCCN)C(N)=O) [[Lys^7]-Ghrelin (1-7)-amide]", "label": "rule met"}
{"binder": "GSXFLSPEHQRVQQRKESKKPPAKLQPR (position 3 (X) is norleucine (Nle)) [[Nle^3]-hGhrelin]", "label": "rule met"}
{"binder": "[Aib]HS(Octyl)FK-NH2 (N-terminus assumed; SMILES CCCCCCCCOC[C@H](NC(=O)[C@H](Cc1c[nH]cn1)NC(=O)C(C)(C)N)C(=O)N[C@@H](Cc1ccccc1)C(=O)N[C@@H](CCCCN)C(N)=O) [[Aib^1,His^2,Ser^3(Octyl),Lys^5]-Ghrelin (1-5)-amide]", "label": "rule met"}
{"binder": "GSXFLSPEHQRVQQRKESKKPPAKLQPR (position 3 (X) is 2-aminododecanoic acid (Adod; side chain n-C10H21)) [[Adod^3]-hGhrelin]", "label": "rule not met"}

**Query** Is Activity EC50 at least 10 nM? Consider GSXFLSPEHQRVQQRKESKKPPAKLQPR (position 3 (X) is L-2,3-diaminopropionic acid (Dap) with N-octanoyl side chain (CH2NHCO-C7H15)) [[Dap^3(Octanoyl)]-hGhrelin]
**Result** rule not met

**Query** Evaluate GSC(S‑heptyl)FLSPEHQRVQQRKESKKPPAKLQPR [[Cys^3(S-Heptyl)]-hGhrelin] : Activity EC50 at minimum 10 nM?
**Result** rule not met
